# Test summary: In vitro intrinsic clearance in human liver microsomes (HLM)
# Assay type: in vitro ADME
# Run parameters: pH 7.4, 1 μM substrate, NADPH, 37° C., read-out: HLM CLint, app
# Description: Test Compounds (Example 1-3 and Comparative-Compounds 1-4) were prepared as solutions in DMSO. The final concentration of DMSO in the incubation was <0.1% (v/v). […] (all final concentrations) in a 384-well plate. The reaction mixture was pre-warmed at 37° C. for 10 min prior to initiation of the incubation. […] The samples were vortexed followed by centrifugation and the supernatant was analyzed by LC/MS-MS using multiple reaction monitoring. […]
Experimental readout: microsomal CLint at 1 μM

compound=CN([C@H]1COC2(CCN(C(=O)O[C@H](CO)C(F)(F)F)CC2)C1)S(=O)(=O)CC1CC1 measured_result="< 12.5 µL/min/mg"
compound=O=C(OC(C(F)(F)F)C(F)(F)F)N1CCC2(CC1)C[C@@H](NS(=O)(=O)c1ccccc1)CO2 measured_result="30.4 µL/min/mg"
compound=O=C(OC(C(F)(F)F)C(F)(F)F)N1CCC2(CC1)C[C@@H](NS(=O)(=O)C1CC1)CO2 measured_result="< 8 µL/min/mg"
compound="O=C(OC(C(F)(F)F)C(F)(F)F)N1CCC2(CCC(NS(=O)(=O)CC3CC3)CO2)CC1 (stereo not shown)" measured_result="< 8 µL/min/mg"
compound=CN([C@H]1COC2(CCN(C(=O)O[C@H](CO)C(F)(F)F)CC2)C1)S(=O)(=O)c1ccccc1 measured_result="14.8 µL/min/mg"
compound=O=C(OC(C(F)(F)F)C(F)(F)F)N1CCC2(CC1)C[C@@H](NS(=O)(=O)CC1CC1)CO2 measured_result="< 8 µL/min/mg"

The record that follows has no microsomal CLint at 1 μM shown yet.
So, CN([C@H]1COC2(CCN(C(=O)O[C@H](CO)C(F)(F)F)CC2)C1)S(=O)(=O)C1CC1 ? Its microsomal CLint at 1 μM was < 8 µL/min/mg

====

Would you kindly list half-life for each of these compounds?
# Test summary: Dog intravenous pharmacokinetic study
# Type: in vivo, Male beagle dogs
# Run parameters: male, beagle, IV dose of 1 mg/kg, plasma, read-out: Dog t1/2 (converted)
Please make sure the unit comes right after the number.

In the examples that follow, each entry is paired with its recorded half-life.
compound=O=C(OC(C(F)(F)F)C(F)(F)F)N1CCC2(CC1)C[C@@H](NS(=O)(=O)CC1CC1)CO2 measured_result="16.9 h"
compound=CN([C@H]1COC2(CCN(C(=O)O[C@H](CO)C(F)(F)F)CC2)C1)S(=O)(=O)CC1CC1 measured_result="0.5 h"

Parameter requested: half-life. Apply to each item below.
1. O=C(OC(C(F)(F)F)C(F)(F)F)N1CCC2(CC1)C[C@@H](NS(=O)(=O)C1CC1)CO2
2. O=C(OC(C(F)(F)F)C(F)(F)F)N1CCC2(CCC(NS(=O)(=O)CC3CC3)CO2)CC1 (stereo not drawn)
3. CN([C@H]1COC2(CCN(C(=O)O[C@H](CO)C(F)(F)F)CC2)C1)S(=O)(=O)c1ccccc1

1: 40.7 h; 2: 26.3 h; 3: 5 h

Reported half-life of CN([C@H]1COC2(CCN(C(=O)O[C@H](CO)C(F)(F)F)CC2)C1)S(=O)(=O)C1CC1 : 1.31 h

====

# Test summary: Mouse subcutaneous neuropharmacokinetics study
# Assay type: in vivo, Male C57Bl6 mice
# Run parameters: male, C57Bl6, mouse, brain (cerebellum homogenate) and plasma, sc, subcutaneous dose of 1 mg/kg, read-out: Mouse Cb,u/Cp,u
Give measured Kp,uu (unbound brain/unbound plasma ratio) for each item. Keep answers brief.
Answers are plain numbers.

substance_smiles=CN([C@H]1COC2(CCN(C(=O)O[C@H](CO)C(F)(F)F)CC2)C1)S(=O)(=O)C1CC1 measured_result=0.29

Give Kp,uu (unbound brain/unbound plasma ratio) for each listed item.
1. O=C(OC(C(F)(F)F)C(F)(F)F)N1CCC2(CC1)C[C@@H](NS(=O)(=O)CC1CC1)CO2
2. CN([C@H]1COC2(CCN(C(=O)O[C@H](CO)C(F)(F)F)CC2)C1)S(=O)(=O)c1ccccc1
3. O=C(OC(C(F)(F)F)C(F)(F)F)N1CCC2(CC1)C[C@@H](NS(=O)(=O)C1CC1)CO2
4. CN([C@H]1COC2(CCN(C(=O)O[C@H](CO)C(F)(F)F)CC2)C1)S(=O)(=O)CC1CC1

1
0.51
0.8
0.18

====

# Target or test system: human recombinant Monoacylglycerol Lipase (Homo sapiens)
# Sequence (Q99685 1-303): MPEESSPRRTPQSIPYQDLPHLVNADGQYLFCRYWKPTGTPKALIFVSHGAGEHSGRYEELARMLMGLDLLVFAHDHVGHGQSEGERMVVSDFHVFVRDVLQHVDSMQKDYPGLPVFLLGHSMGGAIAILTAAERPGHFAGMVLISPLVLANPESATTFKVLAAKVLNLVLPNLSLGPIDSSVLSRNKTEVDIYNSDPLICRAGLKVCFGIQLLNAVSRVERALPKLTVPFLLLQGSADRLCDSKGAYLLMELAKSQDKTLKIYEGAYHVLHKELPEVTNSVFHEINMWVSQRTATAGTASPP
# Test summary: MAGL inhibition enzymatic assay (7-HCA fluorogenic substrate)
# Assay type: biochemical
# Run parameters: 30 minute incubation before substrate; geometric mean; read-out: MAGL (T = 30 min) IC50
Experimental readout: pIC50
Give bare numbers, as −log10 of the molar value.

molecule=O=C(OC(C(F)(F)F)C(F)(F)F)N1CCC2(CC1)C[C@@H](NS(=O)(=O)C1CC1)CO2 experimental_readout=pIC50 measured_result=7.46
molecule="O=C(OC(C(F)(F)F)C(F)(F)F)N1CCC2(CCC(NS(=O)(=O)CC3CC3)CO2)CC1 (single isomer, unassigned; ent-2) [Example 5]" experimental_readout=pIC50 measured_result=8.00
molecule="O=C(OC(C(F)(F)F)C(F)(F)F)N1CCC2(CCC(NS(=O)(=O)CC3CC3)CO2)CC1 (centres unmarked) [Example 3]" experimental_readout=pIC50 measured_result=7.55
molecule="O=C(OC(C(F)(F)F)C(F)(F)F)N1CCC2(CCC(NS(=O)(=O)CC3CC3)CO2)CC1 (single isomer, unassigned; ent-1) [Example 4]" experimental_readout=pIC50 measured_result=7.70

Shift focus to the following entry.
Case O=C(OC(C(F)(F)F)C(F)(F)F)N1CCC2(CC1)C[C@@H](NS(=O)(=O)CC1CC1)CO2 , human recombinant Monoacylglycerol Lipase (Homo sapiens), pIC50 recorded as 7.56

====

Please provide measured pIC50 for the entries that follow.
# Target or test system: human recombinant Monoacylglycerol Lipase (Homo sapiens, UniProt Q99685)
# Test summary: MAGL inhibition enzymatic assay (7-HCA fluorogenic substrate)
# Type: biochemical
# Run parameters: substrate added immediately (T=0 min); geometric mean; read-out: MAGL (T = 0 min) IC50
One number for each entry, as −log10 of the molar value.

The cases that follow already have their pIC50 on record.
compound="O=C(OC(C(F)(F)F)C(F)(F)F)N1CCC2(CC1)C[C@@H](NS(=O)(=O)C1CC1)CO2 [Example 2]" target_or_test_system="human recombinant Monoacylglycerol Lipase (Homo sapiens, UniProt Q99685)" measured_result=6.43
compound="O=C(OC(C(F)(F)F)C(F)(F)F)N1CCC2(CC1)C[C@@H](NS(=O)(=O)CC1CC1)CO2 [Example 1]" target_or_test_system="human recombinant Monoacylglycerol Lipase (Homo sapiens, UniProt Q99685)" measured_result=6.53

Batch of 2 compounds: report pIC50 for each.
1. O=C(OC(C(F)(F)F)C(F)(F)F)N1CCC2(CCC(NS(=O)(=O)CC3CC3)CO2)CC1 (centres unmarked) [Example 3]
2. O=C(OC(C(F)(F)F)C(F)(F)F)N1CCC2(CCC(NS(=O)(=O)CC3CC3)CO2)CC1 (single isomer, unassigned; ent-1) [Example 4]

[6.53, 6.79]

So, O=C(OC(C(F)(F)F)C(F)(F)F)N1CCC2(CCC(NS(=O)(=O)CC3CC3)CO2)CC1 (single isomer, unassigned; ent-2) [Example 5] ? Its pIC50 was 6.99

====

Hi there, I'd appreciate the recorded MAGL kinact/KI for every entry that follows.
# Target or test system: human recombinant Monoacylglycerol Lipase (Homo sapiens, UniProt Q99685)
# Test summary: MAGL inactivation (enzyme progress curves, kinact/KI)
# Format: biochemical
# Run parameters: geometric mean

Consider the worked cases shown below.
compound="O=C(OC(C(F)(F)F)C(F)(F)F)N1CCC2(CCC(NS(=O)(=O)CC3CC3)CO2)CC1 (single isomer, unassigned; ent-2) [Example 5]" target_or_test_system="human recombinant Monoacylglycerol Lipase (Homo sapiens, UniProt Q99685)" measured_result="6930 1/s per M"
compound=O=C(OC(C(F)(F)F)C(F)(F)F)N1CCC2(CC1)C[C@@H](NS(=O)(=O)CC1CC1)CO2 target_or_test_system="human recombinant Monoacylglycerol Lipase (Homo sapiens, UniProt Q99685)" measured_result="2990 1/s per M"
compound=O=C(OC(C(F)(F)F)C(F)(F)F)N1CCC2(CC1)C[C@@H](NS(=O)(=O)C1CC1)CO2 target_or_test_system="human recombinant Monoacylglycerol Lipase (Homo sapiens, UniProt Q99685)" measured_result="2050 1/s per M"
compound="O=C(OC(C(F)(F)F)C(F)(F)F)N1CCC2(CCC(NS(=O)(=O)CC3CC3)CO2)CC1 (centres unmarked) [Example 3]" target_or_test_system="human recombinant Monoacylglycerol Lipase (Homo sapiens, UniProt Q99685)" measured_result="3160 1/s per M"

compound O=C(OC(C(F)(F)F)C(F)(F)F)N1CCC2(CCC(NS(=O)(=O)CC3CC3)CO2)CC1 (single isomer, unassigned; ent-1) [Example 4] , MAGL kinact/KI observed: 3110 1/s per M

Data provenance: patent US20210309669A1
